We begin with a simple list: items and their reported log10(TGI).
System: HS 578T breast
Assay: NCI tumour cell line growth inhibition, 48 h
Transform log10 | Measure TGI | Unit µM

COc1ccc2c(ccc3oc([N+](=O)[O-])cc32)c1 | 0.20
COc1ccc(C(=O)c2cc(C)c(OC)c(C)c2)c(OC)c1OC(=O)C(Cl)Cl | 1.87
O=C(Oc1c(Cl)c(Cl)c(Cl)c(Cl)c1Cl)C1CCCN1C(=O)OCc1ccccc1 (centres undefined) | 1.02
CN(CCc1ccccn1)c1ccc2c(c1)Cc1ccccc1-2 | 1.00
N#CC(C#N)[C@@H]1CCC=C(Sc2ccccc2)[C@H]1Sc1ccccc1 | 1.42

Short answer for Cc1nc2sc(C(=O)Nc3cccc(Cl)c3C)c(N)c2cc1C(O)c1ccccc1 (centres undefined) : log10(TGI) was -0.30

Short answer for CCSc1nc(N)c(C#N)c(-c2ccc(OC)c(OC)c2)c1C#N : log10(TGI) was 1.64

Short answer for C/C=C/C(O)P(=O)(OC)OC (centres undefined) : log10(TGI) was -0.04
